- Assay system: GCN2_T
- Assay notes: two-hybrid library CCmax;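 further: natural log of median RNA to DNA barcode read ratio; higher means stronger binding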
- Condition description: mean of both orientations
Decision: interaction score beneath -1 gives rule met; interaction score meeting or exceeding -1 gives rule not met.

Ask | Confirm or reject: interaction score of DENAALKAENAALKAKIAALEAKIAALEG [4H1765-AA] lies strictly below -1
Reply | rule met

Ask | Confirm or reject: interaction score of DKNAALKAEIAALEAEIAALEAKIAALKG [4H3590-AA] lies strictly below -1
Reply | rule not met

Ask | Confirm or reject: interaction score of DKIAALKAENAALEAKIAALEAEIAALEG [4H2721-AA] lies strictly below -1
Reply | rule not met

Ask | Confirm or reject: interaction score of DEIAALEAENAALEAEIAALEAKIAALKG [4H134-AA] lies strictly below -1
Reply | rule not met

Ask | Confirm or reject: interaction score of DEIAALEAENAALEAEIAALKAENAALKG [4H140-AA] lies strictly below -1
Reply | rule met

Ask | Confirm or reject: interaction score of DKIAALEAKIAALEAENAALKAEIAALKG [4H2330-AA] lies strictly below -1
Reply | rule met

Ask | Confirm or reject: interaction score of DKIAALKAKNAALKAEIAALEAKNAALEG [4H3015-AA] lies strictly below -1
Reply | rule met

Ask | Confirm or reject: interaction score of DKIAALKAKIAALKAEIAALEAKNAALKG [4H2888-AA] lies strictly below -1
Reply | rule met

Ask | Confirm or reject: interaction score of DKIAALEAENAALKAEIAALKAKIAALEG [4H2253-AA] lies strictly below -1
Reply | rule met

Ask | Confirm or reject: interaction score of DENAALKAEIAALKAEIAALKAKNAALEG [4H1615-AA] lies strictly below -1
Reply | rule met

Ask | Confirm or reject: interaction score of DKIAALKAEIAALEAKNAALKAKIAALKG [4H2622-AA] lies strictly below -1
Reply | rule not met

Ask | Confirm or reject: interaction score of DKIAALKAENAALEAENAALEAEIAALEG [4H2705-AA] lies strictly below -1
Reply | rule met

Ask | Confirm or reject: interaction score of DENAALKAKIAALEAENAALKAKIAALEG [4H1821-AA] lies strictly below -1
Reply | rule met
